Data credit: ChEMBL document CHEMBL2380305

- ASSAY_DETAILS: in vivo
- TEST_CONTEXT: Sprague-Dawley, rat, plasma, iv, 1 mg/kg
READOUT_NAME: clearance (mL/min/kg)

CC(C)n1ncnc1-c1nc2c(s1)CCOc1cc(-c3cnn(CCO)c3)ccc1-2 :: 5.4
Cc1nc(-c2nc3c(s2)CCOc2cc(-c4cnn(CCO)c4)ccc2-3)n(C(C)C)n1 :: 1.9
CC(C)n1ncnc1-c1nc2c(s1)CCOc1cc(-c3cnn(CS(C)(=O)=O)c3)ccc1-2 :: 6.1

[a] CC(C)n1ncnc1-c1nc2c(s1)CCOc1cc(C3CN(CC(C)(C)O)C3)ccc1-2
[b] CC(C)n1ncnc1-c1nc2c(s1)CCOc1cc(C3CN(C(C)(C)C(N)=O)C3)ccc1-2
[c] CC(C)n1ncnc1-c1nc2c(s1)CCOc1cc(-c3cnn(CC(C)(C)O)c3)ccc1-2
Problem: Your job: order these 3 records by clearance, ascending. Please respond by ranking the labels in the order requested.
Solution: c, b, a
